Target: T1, cSNK:BSA conjugate (bovine, head-to-tail cyclized; conjugated to BSA carrier)
T1 construct: also called BSA-cSNK
T1 sequence (P02769 25-607 limits assumed): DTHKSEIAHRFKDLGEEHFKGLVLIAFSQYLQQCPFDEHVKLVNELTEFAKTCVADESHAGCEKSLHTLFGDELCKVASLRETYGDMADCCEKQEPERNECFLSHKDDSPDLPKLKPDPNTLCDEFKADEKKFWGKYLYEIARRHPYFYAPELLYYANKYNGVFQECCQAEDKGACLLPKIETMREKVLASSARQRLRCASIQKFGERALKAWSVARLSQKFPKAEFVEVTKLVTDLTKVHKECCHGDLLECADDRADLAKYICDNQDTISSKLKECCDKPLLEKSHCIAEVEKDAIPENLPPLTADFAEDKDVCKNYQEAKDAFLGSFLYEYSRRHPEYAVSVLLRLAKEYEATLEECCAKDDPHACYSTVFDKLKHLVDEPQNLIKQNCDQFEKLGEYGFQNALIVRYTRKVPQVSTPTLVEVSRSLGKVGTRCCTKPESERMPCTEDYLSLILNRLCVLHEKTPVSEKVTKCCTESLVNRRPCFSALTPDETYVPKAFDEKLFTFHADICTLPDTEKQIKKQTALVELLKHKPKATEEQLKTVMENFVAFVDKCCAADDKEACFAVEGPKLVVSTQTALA
Test: BLI 2:1 fit, site 1; 25 nM row

- Binder: "rehu5E3-IgG4 (antibody, V domains shown, human IgG4/kappa; also called IgG4 rehu version) VH: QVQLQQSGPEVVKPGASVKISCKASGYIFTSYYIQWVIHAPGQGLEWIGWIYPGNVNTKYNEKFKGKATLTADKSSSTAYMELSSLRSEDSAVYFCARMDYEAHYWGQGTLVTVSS VL: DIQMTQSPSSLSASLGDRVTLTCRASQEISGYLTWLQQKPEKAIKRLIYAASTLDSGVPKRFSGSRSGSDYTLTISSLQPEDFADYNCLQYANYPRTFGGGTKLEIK"
  koff / s⁻¹: 0.000386
- Binder: "murine monoclonal antibody 5E3 (antibody, V domains shown, mouse antibody of the 5E3 hybridoma; also called murine 5E3; m5E3) VH: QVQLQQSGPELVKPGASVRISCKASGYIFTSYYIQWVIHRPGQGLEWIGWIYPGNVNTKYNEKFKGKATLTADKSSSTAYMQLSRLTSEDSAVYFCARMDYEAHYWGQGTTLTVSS VL: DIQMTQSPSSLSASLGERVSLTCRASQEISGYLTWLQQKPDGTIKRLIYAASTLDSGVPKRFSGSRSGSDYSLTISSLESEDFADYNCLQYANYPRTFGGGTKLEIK"
  koff / s⁻¹: 0.000428
- Binder: "hu5E3-IgG2 (antibody, V domains shown, human IgG2/kappa; also called humanized 5E3 IgG2) VH: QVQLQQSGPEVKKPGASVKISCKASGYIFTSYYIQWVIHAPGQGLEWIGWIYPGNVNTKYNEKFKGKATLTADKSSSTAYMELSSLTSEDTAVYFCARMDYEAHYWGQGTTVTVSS VL: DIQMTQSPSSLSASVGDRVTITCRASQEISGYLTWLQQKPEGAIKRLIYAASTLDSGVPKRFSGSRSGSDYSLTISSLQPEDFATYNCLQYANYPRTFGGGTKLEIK"
  koff / s⁻¹: 0.000762
- Binder: "hu5E3-IgG4 (antibody, V domains shown, human IgG4/kappa; also called humanized 5E3 IgG4) VH: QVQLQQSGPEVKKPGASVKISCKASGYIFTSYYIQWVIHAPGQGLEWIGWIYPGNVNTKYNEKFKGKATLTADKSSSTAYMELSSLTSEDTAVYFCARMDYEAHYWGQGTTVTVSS VL: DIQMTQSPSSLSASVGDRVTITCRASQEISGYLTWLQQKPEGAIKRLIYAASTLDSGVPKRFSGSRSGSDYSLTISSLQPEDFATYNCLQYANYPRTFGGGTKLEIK"
  koff / s⁻¹: 0.00055
